Values were extracted from patent US7699995B2.

The entries below come with measured Log Reduction in Mycobacterial Counts versus Control (no biocide) values attached.
- Test system: natural, resident populations of Mycobacterium
- EXPERIMENT_NOTES: Eradication of mycobacteria in naturally contaminated in-use metalworking fluids
- Format: cell-based
- ASSAY_CONDITIONS: Fluid 4, 48 hours, 50% of recommended maximum dose
QUANTITY: Log Reduction in Mycobacterial Counts versus Control (no biocide) (log)

>>> print(df.to_string())
                                   compound  reading_unit  experimental_result
0                                Cn1sccc1=O           log                 2.00
1                     OCCN1CN(CCO)CN(CCO)C1           log                 0.00
2                            Cc1cc(O)ccc1Cl           log                 5.24
3  O=c1[nH]sc2ccccc12 [BIT, 1,2-benzisothiazolin-3-one, reference compound]           log                 0.00

----------
- Tested on: Mycobacterium immunogenum (ATCC 700505)
- EXPERIMENT_NOTES: MBC test, transfer from MIC plates to fresh media
- Format: cell-based
- ASSAY_CONDITIONS: M. immunogenum, no survivors after 2 days in fresh media
QUANTITY: Minimum Biocidal Concentration (ppm active)

>>> print(df.to_string())
                                   molecule                        quantity  reading_unit  experimental_result
0  O=c1[nH]sc2ccccc12 [BIT, 1,2-benzisothiazolin-3-one, reference compound]  Minimum Biocidal Concentration    ppm active                  188
1                     OCCN1CN(CCO)CN(CCO)C1  Minimum Biocidal Concentration    ppm active                  314
2                            Cc1cc(O)ccc1Cl  Minimum Biocidal Concentration    ppm active                   75
3                                Cn1sccc1=O  Minimum Biocidal Concentration    ppm active                   84
4                                   C1COCN1  Minimum Biocidal Concentration    ppm active                  836

----------
- Test system: natural, resident populations of Mycobacterium
- EXPERIMENT_NOTES: Eradication of mycobacteria in naturally contaminated in-use metalworking fluids
- Type: cell-based
- ASSAY_CONDITIONS: Fluid 6, 48 hours, 50% of recommended maximum dose
QUANTITY: Log Reduction in Mycobacterial Counts versus Control (no biocide) (log)

In [3]: df
Out[3]:
                                   molecule  reading_unit  experimental_result
0  O=c1[nH]sc2ccccc12 [BIT, 1,2-benzisothiazolin-3-one, reference compound]           log                 0.00
1  Cn1sccc1=O [MI, 2-methyl-4-isothiazolin-3-one]           log                 1.78
2          OCCN1CN(CCO)CN(CCO)C1 [Triazine]           log                 0.00
3                     Cc1cc(O)ccc1Cl [PCMC]           log                 3.88
